All values here come from patent EP4813979A1.

# method.summary: Pharmacokinetic test of CD-1 mice
# Assay type: in vivo
# run.parameters: mouse; male CD-1 mice, single oral gavage (PO), plasma
Hi there, I'd appreciate the recorded MRT last for every entry that follows.
Form entry: value (h) — number only.

Give reported MRT last value for CCc1cc(Nc2ncc(Cl)c(Nc3ccccc3C(=O)NC)n2)c(OC)cc1N1CCN(C(=O)CN2CCC(c3cc4c(cc3F)c(N3CCC(=O)NC3=O)nn4C)C(F)(F)C2)CC1 (stereo not shown)
5.11

// Input: CCc1cc(Nc2ncc(Cl)c(Nc3ccccc3P(C)(C)=O)n2)c(OC)cc1N1CCN(C(=O)CN2CCC(c3cc4c(cc3F)c(N3CCC(=O)NC3=O)nn4C)C(F)(F)C2)CC1 (stereo not shown) . Output its MRT last only.
4.59

Annotate the molecule CCc1cc(Nc2ncc(Br)c(Nc3ccccc3C(=O)NC)n2)c(OC)cc1N1CCN(C(=O)CN2CCC(c3cc4c(cc3F)c(N3CCC(=O)NC3=O)nn4C)C(F)(F)C2)CC1 (stereo not shown) with its measured MRT last.
6.01

Provide measured MRT last value, entry: CCc1cc(Nc2ncc(Cl)c(Nc3ccccc3C(=O)NC)n2)c(OC)cc1N1CCN(C(=O)CN2CCC(c3ccc4c(N5CCC(=O)NC5=O)nn(C)c4c3)C(F)(F)C2)CC1 (stereo not shown) [Comparative Example 1-1, reference compound]
6.06

====

# method.summary: Pharmacokinetic tests in male SD rats
# Type: in vivo
# run.parameters: rat, in vivo, oral gavage (po), 10 mg/kg, plasma
property.measured: AUC(0-t)
Kindly format the answer as number then unit.

Supply AUC(0-t) value. Item: CCc1cc(Nc2ncc(Br)c(Nc3ccccc3P(C)(C)=O)n2)c(OC)cc1N1CCN(C(=O)Cn2nc(C)c(-c3cc4c(cc3F)c(N3CCC(=O)NC3=O)nn4C)c2C)CC1
4120 ng·h/mL

====

# System: Baf3-L858R-T790M - C797S (Baf3-LTC)
# method.summary: Cell anti-proliferation experiment (CTG)
# Format: cell-based
# run.parameters: 72 h, class symbol
pIC50: −log10 of the molar value.
Please provide measured pIC50 for the entries that follow.

For the compound CCc1cc(Nc2ncc(Cl)c(Nc3ccccc3P(C)(C)=O)n2)c(OC)cc1N1CC2(CCN(C(=O)CN3CCC(c4cc5c(cc4F)c(N4CCC(=O)NC4=O)nn5C)C(F)(F)C3)CC2)C1 (centres unmarked) [TA-023] , give its reported pIC50.
> 8.00

Consider the compound CCc1cc(Nc2ncc(Cl)c(Nc3ccccc3P(C)(C)=O)n2)c(OCC(F)(F)F)nc1N1CCN(C(=O)CN2CCC(c3cc4c(cc3F)c(N3CCC(=O)NC3=O)nn4C)C(F)(F)C2)CC1 (centres unmarked) [TC-127] . State its measured pIC50.
7.00 to 8.00

Identify the reported pIC50 for the following entry. COc1cc(N2CCN(C(=O)CN3CCC(c4cc5c(cc4F)c(N4CCC(=O)NC4=O)nn5C)C(F)(F)C3)CC2)c(-c2cnn(C)c2)cc1Nc1ncc(Br)c(Nc2ccccc2P(C)(C)=O)n1 (centres unmarked) [TC-224]
> 8.00

Indicate its recorded pIC50; the compound in question is CCc1cc(Nc2ncc(Cl)c(Nc3ccccc3P3(=O)CCCC3)n2)c(OC)cc1N1CC2(CCN(C(=O)CN3CCC(c4cc5c(cc4F)c(N4CCC(=O)NC4=O)nn5C)C(F)(F)C3)CC2)C1 (centres unmarked) [TB-005]
7.00 to 8.00

Indicate the recorded pIC50 value for this compound: CCc1cc(Nc2ncc(Br)c(Nc3ccccc3P(C)(C)=O)n2)c(OC)cc1N1CCN(C(=O)Cn2nc(C)c(-c3cc4c(cc3F)c(N3CCC(=O)NC3=O)nn4C)c2C)CC1 [TC-144]
> 8.00
